# Human factor Xa (Homo sapiens): IC50 or % Inhibition Factor Xa (30 µM) values follow
# Sequence (P00742 235-488 limits assumed): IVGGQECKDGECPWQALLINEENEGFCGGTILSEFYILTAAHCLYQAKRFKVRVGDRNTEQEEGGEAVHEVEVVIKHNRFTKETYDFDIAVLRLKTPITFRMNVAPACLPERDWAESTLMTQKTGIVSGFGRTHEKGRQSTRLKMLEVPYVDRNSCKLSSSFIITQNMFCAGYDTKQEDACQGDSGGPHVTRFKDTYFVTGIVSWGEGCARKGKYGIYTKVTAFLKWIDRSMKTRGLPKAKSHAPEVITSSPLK
# Sequence (P00742 41-179 limits assumed): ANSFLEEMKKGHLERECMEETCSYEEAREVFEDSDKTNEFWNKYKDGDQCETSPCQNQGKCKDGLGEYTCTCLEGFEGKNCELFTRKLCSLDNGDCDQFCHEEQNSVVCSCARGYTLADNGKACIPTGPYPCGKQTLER
Remember to quote the unit after the number.

> print(dat)
                                   compound                     test.system  result
1  N=C(N)c1ccc(CNC(=O)C(Cc2ccccc2)n2c(-c3ccccc3)c(Cl)nc(NCCc3ccccc3)c2=O)cc1 (stereo not shown) [1517-14]  Human factor Xa (Homo sapiens)      0%
2  N=C(N)c1ccc(CNC(=O)Cn2c(-c3ccccc3)c(Cl)nc(NCc3cc(F)c(F)c(F)c3)c2=O)cc1 [1512-32]  Human factor Xa (Homo sapiens)      5%
3  Cc1c(Cl)nc(NCc2ccncc2)c(=O)n1CC(=O)NCc1ccc(C(=N)N)cc1 [1471-3]  Human factor Xa (Homo sapiens)      0%
4  N=C(N)c1ccc(CNC(=O)Cn2c(-c3ccccc3)c(Cl)nc(NCCc3ccc(Cl)c(Cl)c3)c2=O)cc1 [1507-44]  Human factor Xa (Homo sapiens)      9%
5  CC(C)Nc1nc(Cl)c(-c2cccc(C(=O)O)c2)n(CC(=O)NCc2ccc(C(=N)N)cc2)c1=O [Example 65]  Human factor Xa (Homo sapiens)     12%
6  C[C@@H](C(=O)NCc1ccc(C(=N)N)cc1)n1c(-c2ccccc2)c(Cl)nc(NCc2ccccc2)c1=O [1517-03]  Human factor Xa (Homo sapiens)      0%

From here, focus on the item given below.
Reported IC50 or % Inhibition Factor Xa (30 µM) for CCc1c(Cl)nc(NCc2ccncc2)c(=O)n1CC(=O)NCc1ccc(C(=N)N)cc1 [1471-59] : what is it?
0%

---

// values below are reported pIC50
Target: TF-VIIa (Homo sapiens)
Construct: 2nM recombinant human factor VIIa; purchased American Diagnostica, Greenwich CT; host or cells: soluble TF made in house in E. coli
Sequence (P08709 213-466 limits assumed): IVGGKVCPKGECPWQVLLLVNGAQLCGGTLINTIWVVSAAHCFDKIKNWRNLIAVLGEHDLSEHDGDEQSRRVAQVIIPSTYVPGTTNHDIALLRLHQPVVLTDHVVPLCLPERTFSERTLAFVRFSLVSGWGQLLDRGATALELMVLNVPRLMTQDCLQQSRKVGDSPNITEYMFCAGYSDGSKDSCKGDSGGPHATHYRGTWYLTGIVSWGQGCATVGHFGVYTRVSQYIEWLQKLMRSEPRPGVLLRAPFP
Sequence (P08709 61-212 limits assumed): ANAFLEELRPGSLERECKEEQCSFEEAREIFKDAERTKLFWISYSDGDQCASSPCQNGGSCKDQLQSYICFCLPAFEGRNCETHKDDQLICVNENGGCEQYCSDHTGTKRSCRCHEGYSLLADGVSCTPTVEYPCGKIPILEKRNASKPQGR
Sequence (P13726 33-251 partner limits assumed): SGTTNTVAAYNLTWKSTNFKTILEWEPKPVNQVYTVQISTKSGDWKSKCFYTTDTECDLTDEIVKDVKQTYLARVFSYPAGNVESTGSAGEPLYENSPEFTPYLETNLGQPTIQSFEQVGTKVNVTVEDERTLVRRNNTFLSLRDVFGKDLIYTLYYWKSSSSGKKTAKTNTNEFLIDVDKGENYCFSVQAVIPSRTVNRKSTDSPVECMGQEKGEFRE
Assay: TF-VIIa Assay
Format: biochemical
Details: cells given as a plain number (IC50); read-out: IC50 or % Inhibition TF-VIIa (30 µM)
On this scale, pIC50 is minus log10 of a concentration expressed in M (mol/L).

Known pIC50 results, listed for orientation:
> print(dat)
                                   compound  readout.number
1  N=C(N)NCCCNC(=O)Cn1c(-c2ccccc2)cnc(NCCc2ccccc2)c1=O            4.04
2  CN(C)Nc1nc(Cl)c(-c2cccc(N)c2)n(CC(=O)NCc2ccc(C(=N)N)cc2)c1=O            7.40
3  N=C(N)NCCCCNc1nc(Cl)c(-c2ccccc2)n(CC(=O)NCc2ccc(C(=N)N)cc2)c1=O            6.24

Reported pIC50 for N=C(N)c1ccc(CNC(=O)Cn2c(-c3ccccc3)c(Cl)nc(NCc3ccc(Cl)cc3)c2=O)cc1 : what is it?
5.37

Also check N=C(N)c1ccc(CNC(=O)Cn2c(-c3ccccc3)c(Cl)nc(NC3CC4CCC3C4)c2=O)cc1 (stereo not shown)
6.10

Also check N=C(N)c1ccc(CNC(=O)Cn2c(-c3ccccc3)c(Cl)nc(NCCCc3ccccc3)c2=O)cc1
4.90

Also check N=C(N)c1ccc(CNC(=O)Cn2c(-c3ccccc3)c(Cl)nc(NC3CCS(=O)(=O)C3)c2=O)cc1 (stereo not shown) [1507-36]
4.86

Also check CC(C)(C)Nc1nc(Cl)c(-c2cccc(N)c2)n(CC(=O)NCc2ccc(C(=N)N)cc2)c1=O
7.15

Also check N=C(N)c1ccc(CNC(=O)Cn2c(-c3cccc(N)c3)c(Cl)nc(NCc3ccccc3)c2=O)cc1
7.00

Also check N=C(N)c1ccc(CNC(=O)Cn2c(-c3ccccc3)c(Cl)nc(NCc3cccc(C(=N)N)c3)c2=O)cc1
6.23

Also check N=C(N)c1ccc(CNC(=O)Cn2c(-c3ccccc3O)c(Cl)nc(NC3CCC3)c2=O)cc1
6.47
